# measurement.target: T1, human LILRB1 expressed on cells (human, UniProt Q8NHL6 24-650)
# T1 construct: In 293T cells it was expressed from pCMV3-LILRB1-GFP; also called CHO-LILRB1; Jurkat-LILRB1
# T1 sequence (Q8NHL6 other isoform, or with tags, fused parts or gaps limits assumed): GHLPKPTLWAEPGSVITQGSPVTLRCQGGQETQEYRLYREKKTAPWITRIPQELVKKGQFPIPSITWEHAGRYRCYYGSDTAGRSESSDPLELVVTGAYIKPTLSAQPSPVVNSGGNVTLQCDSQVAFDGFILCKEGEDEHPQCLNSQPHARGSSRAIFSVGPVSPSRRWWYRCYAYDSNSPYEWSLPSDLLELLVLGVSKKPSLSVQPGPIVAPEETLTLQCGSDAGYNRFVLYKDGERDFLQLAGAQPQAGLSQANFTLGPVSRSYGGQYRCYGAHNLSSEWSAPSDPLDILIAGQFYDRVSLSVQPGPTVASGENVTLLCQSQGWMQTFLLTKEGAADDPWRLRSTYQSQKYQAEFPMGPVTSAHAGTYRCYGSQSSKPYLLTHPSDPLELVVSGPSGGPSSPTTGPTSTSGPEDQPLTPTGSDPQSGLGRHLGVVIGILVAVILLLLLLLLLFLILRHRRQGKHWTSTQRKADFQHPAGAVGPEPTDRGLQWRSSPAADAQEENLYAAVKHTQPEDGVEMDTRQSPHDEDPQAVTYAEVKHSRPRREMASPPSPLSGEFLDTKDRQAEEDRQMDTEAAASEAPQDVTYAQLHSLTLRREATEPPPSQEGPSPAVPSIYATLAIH
# test: flow cytometry on CHO-LILRB1 cells, non-linear fit of the curves of FIG. 26A
endpoint: EC50 (µg/mL)
Supply the numeric figure in µg/mL, leaving out any unit text.

// EC50 lookup, binder = D2M002-026 (antibody, V domains shown, Hit; also called clone #26) VH: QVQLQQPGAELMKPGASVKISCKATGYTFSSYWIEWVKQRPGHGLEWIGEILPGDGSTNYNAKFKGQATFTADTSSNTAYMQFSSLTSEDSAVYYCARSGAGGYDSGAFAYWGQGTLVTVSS VL: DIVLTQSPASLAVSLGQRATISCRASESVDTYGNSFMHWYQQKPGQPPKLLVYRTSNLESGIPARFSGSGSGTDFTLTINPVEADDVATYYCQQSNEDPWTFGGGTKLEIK , result: 0.4
